Entry source: ChEMBL document CHEMBL1126150

Target: Kappa-type opioid receptor (Homo sapiens, UniProt P41145)
Sequence (P41145 whole entry): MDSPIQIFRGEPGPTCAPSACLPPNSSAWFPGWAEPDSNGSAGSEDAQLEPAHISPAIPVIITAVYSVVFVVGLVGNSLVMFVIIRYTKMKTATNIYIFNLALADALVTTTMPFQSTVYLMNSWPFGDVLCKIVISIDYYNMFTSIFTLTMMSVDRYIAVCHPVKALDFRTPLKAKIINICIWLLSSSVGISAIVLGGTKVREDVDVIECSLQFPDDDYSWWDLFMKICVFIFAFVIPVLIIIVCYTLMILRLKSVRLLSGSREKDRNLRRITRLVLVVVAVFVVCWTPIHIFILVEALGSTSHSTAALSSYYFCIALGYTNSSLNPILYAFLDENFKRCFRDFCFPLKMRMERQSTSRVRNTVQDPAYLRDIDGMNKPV
Experiment: Kappa-opioid receptor agonist potency in vitro using rabbit vas deferens(LVD) preparation
Assay type: functional, Oryctolagus cuniculus
Conditions: target entry is the homologue from another species
valueType: IC50 (nM)
Kindly answer with a numeric value in nM, unit omitted.

Req: # get_value(readout='IC50', item= O=C(Cc1ccc(Cl)c(Cl)c1)N1CCCCC1CN1CCCC1 (stereo unspecified) )
Resp: 11
